Test system: mouse 3T3 fibroblast
measurement_description: XTT assay (cytotoxicity test)
Assay type: cell-based
recorded_conditions: 100 μg/ml test compound; 16 hours culture; T/C %
value_type: Cell viability (%)
Lab book: enter the figure in %, no units written.

What the record says about COc1ccc(C(=O)N2[C@H](C(=O)O)CSC23CCC(Oc2ccc(C(C)C)cc2)CC3)cc1 (some centres unmarked) [41 (5)] : Cell viability (%) is 90

What the record says about CCN(CC)C(=O)c1ccc(C(=O)N2[C@H](C(=O)O)CSC23CCC(Oc2ccc(C(C)C)cc2)CC3)cc1 (some centres unmarked) [41 (6)] : Cell viability (%) is 97

What the record says about Cc1nc(C(=O)N2[C@H](C(=O)O)CSC23CCC(Oc2ccc(C(C)C)cc2)CC3)cs1 (some centres unmarked) [41 (3)] : Cell viability (%) is 97

What the record says about CC(C)c1ccc(OC2CCC3(CC2)SC[C@@H](C(=O)O)N3C(=O)c2cnccn2)cc1 (some centres unmarked) [41 (4)] : Cell viability (%) is 82

What the record says about CC(C)c1ccc(OC2CCC3(CC2)SC[C@@H](C(=O)NCCC(=O)O)N3C(=O)c2ccccc2)cc1 (some centres unmarked) [Example 29] : Cell viability (%) is 110

What the record says about CC(C)c1ccc(OC2CCC3(CC2)SC(C)(C)[C@@H](C(=O)O)N3C(=O)c2ccccc2)cc1 (some centres unmarked) [20 (2)] : Cell viability (%) is 92

What the record says about CC(C)c1ccc(OC2CCC3(CC2)SC[C@@H](C(=O)O)N3C(=O)c2ccc[nH]2)cc1 (some centres unmarked) [Example 40] : Cell viability (%) is 108

What the record says about CC(C)c1ccc(OC2CCC3(CC2)SC[C@@H](C(=O)O)N3C(=O)c2cnc3ccccc3c2)cc1 (some centres unmarked) [41 (2)] : Cell viability (%) is 71

* * *

Hi there, I'd appreciate the recorded Cell viability (%) for every entry that follows.
System: mouse 3T3 fibroblast
measurement_description: XTT assay (cytotoxicity test)
Format: cell-based
recorded_conditions: 30 μg/ml test compound; 16 hours culture; T/C %
Lab book: enter the figure in %, no units written.

What the record says about CC(C)CC=C1CCC2(CC1)SC(CC(=O)OC(C)C)C(=O)N2CC(=O)O (stereo not shown) [Example 47] : Cell viability (%) is 83

What the record says about CC(C)c1ccc(OC2CCC3(CC2)SC(C)(C)[C@H](C(=O)O)N3C(=O)c2ccccc2)cc1 (stereo partly shown) [20 (1)] : Cell viability (%) is 98

What the record says about CCOC(=O)[C@@H]1CSC2(CCC(Oc3ccc(C(C)C)cc3)CC2)N1C(=O)c1ccccc1 (stereo partly shown) [Example 21] : Cell viability (%) is 74

What the record says about CC(C)CC=C1CCC2(CC1)SC(C)(C)[C@@H](C(=O)O)N2C(=O)CCC(C)C (stereo partly shown) [Example 44] : Cell viability (%) is 75

The measured values listed here are drawn from patent US6384065B1.
